# measurement_target: Vascular endothelial growth factor receptor 2 (Homo sapiens) (UniProt P35968)
# Sequence (P35968 whole entry, the tested form may be a part): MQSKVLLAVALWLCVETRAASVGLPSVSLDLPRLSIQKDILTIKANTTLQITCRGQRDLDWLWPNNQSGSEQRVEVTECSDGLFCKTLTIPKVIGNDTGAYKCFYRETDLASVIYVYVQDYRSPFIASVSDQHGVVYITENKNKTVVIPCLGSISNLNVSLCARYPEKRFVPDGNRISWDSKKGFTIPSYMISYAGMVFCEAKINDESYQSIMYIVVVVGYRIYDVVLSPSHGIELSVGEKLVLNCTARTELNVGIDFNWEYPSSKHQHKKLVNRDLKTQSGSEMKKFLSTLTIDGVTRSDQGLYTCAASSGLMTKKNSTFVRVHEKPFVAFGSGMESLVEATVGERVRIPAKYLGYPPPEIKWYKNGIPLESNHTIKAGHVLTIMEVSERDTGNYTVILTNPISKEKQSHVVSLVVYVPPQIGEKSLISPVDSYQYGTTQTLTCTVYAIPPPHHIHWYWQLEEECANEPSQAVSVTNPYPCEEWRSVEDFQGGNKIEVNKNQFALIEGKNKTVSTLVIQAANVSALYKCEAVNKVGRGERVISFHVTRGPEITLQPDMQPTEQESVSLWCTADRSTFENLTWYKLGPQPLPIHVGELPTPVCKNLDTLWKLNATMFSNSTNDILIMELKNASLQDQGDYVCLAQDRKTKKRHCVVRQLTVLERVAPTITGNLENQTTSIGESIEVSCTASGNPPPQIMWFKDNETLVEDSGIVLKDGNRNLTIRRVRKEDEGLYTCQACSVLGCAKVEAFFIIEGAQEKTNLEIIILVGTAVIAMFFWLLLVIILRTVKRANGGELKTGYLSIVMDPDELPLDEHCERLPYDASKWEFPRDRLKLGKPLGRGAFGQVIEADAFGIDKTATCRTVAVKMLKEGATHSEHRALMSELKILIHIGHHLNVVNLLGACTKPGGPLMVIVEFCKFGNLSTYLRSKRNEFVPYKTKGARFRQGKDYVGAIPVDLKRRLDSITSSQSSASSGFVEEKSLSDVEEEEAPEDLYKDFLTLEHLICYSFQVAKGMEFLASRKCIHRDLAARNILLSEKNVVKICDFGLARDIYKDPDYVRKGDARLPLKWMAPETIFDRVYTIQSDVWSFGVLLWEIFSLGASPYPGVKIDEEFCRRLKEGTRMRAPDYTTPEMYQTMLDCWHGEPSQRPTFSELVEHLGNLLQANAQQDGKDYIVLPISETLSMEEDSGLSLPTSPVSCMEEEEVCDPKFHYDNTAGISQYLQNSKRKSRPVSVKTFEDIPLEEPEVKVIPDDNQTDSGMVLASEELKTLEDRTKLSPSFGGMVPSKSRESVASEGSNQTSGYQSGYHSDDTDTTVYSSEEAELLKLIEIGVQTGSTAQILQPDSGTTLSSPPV
# protocol_notes: Inhibition of N-terminal GST-tagged human KDR cytoplasmic domain (790 to 1356 residues) expressed in baculovirus expression system at […] using FAM-labeled peptide as substrate after 10 mins by mobility shift assay relative to control
Respond with Fulfilled for inhibition values of 10% and above, Not fulfilled for values below.

# count of solved cases: 10
Ask | Could you please find out whether `O=C(O)CCC(=O)Nc1cc(Nc2cccc(Cl)c2)ncn1` has inhibition that meets 10% or exceeds it?
Reply | Not fulfilled

Ask | hey, is inhibition for this one >= 10%? `O=C(O)CCCC(=O)Nc1cc(N2CCOCC2)ncn1`
Reply | Fulfilled

Ask | Quick check: does `COc1cccc(Nc2cc(NC(=O)c3ccccc3)ncn2)c1` have inhibition greater than or equal to 10%?
Reply | Not fulfilled

Ask | Dear colleague, could you confirm whether `CCOc1ccc(Nc2cc(NC(=O)/C=C/c3ccccc3)ncn2)cc1` has inhibition at or above 10%?
Reply | Not fulfilled

Ask | Given `CCOC(=O)CCC(=O)Nc1cc(Nc2cc(OC)ccc2OC)ncn1` , state whether its inhibition is at least 10%.
Reply | Not fulfilled

Ask | Quick check: does `COc1ccc(OC)c(Nc2cc(NCCc3cccs3)ncn2)c1` have inhibition greater than or equal to 10%?
Reply | Fulfilled

Ask | Confirm if inhibition reported for the compound `COc1ccc(/C=C/C(=O)Nc2cc(Nc3ccc(Cl)cc3)ncn2)cc1` is 10% or above.
Reply | Not fulfilled

Ask | // inclusive: inhibition at least 10%? input: `O=C(O)CCC(=O)Nc1cc(Nc2cccc(C(=O)O)c2)ncn1`
Reply | Fulfilled

Ask | Tell me whether inhibition is at least 10% here: `COc1ccc(/C=C/C(=O)Nc2cc(N3CCN(C)CC3)ncn2)cc1`
Reply | Not fulfilled

Ask | Is it the case that `COc1cccc(Nc2cc(NC(=O)CCCC(=O)O)ncn2)c1` has inhibition reaching or exceeding 10%?
Reply | Fulfilled

Would you kindly look at the next entry?
Ask | Could you tell me if the measured inhibition of `O=C(O)CCC(=O)Nc1cc(Nc2ccc(Cl)cc2)ncn1` reaches 10% or more?
Reply | Fulfilled

====

# measurement_target: Fibroblast growth factor receptor 4 (Homo sapiens)
# protocol_notes: Inhibition of N-terminal GST-tagged human FGFR4 cytoplasmic domain (460 to 802 residues) expressed in baculovirus expression system at 1 uM using FAM-labeled peptide as substrate after 10 mins by mobility shift assay relative to control
The following compounds are shown together with reported inhibition values.
Answers without a unit are incomplete; give the number and then its unit.

Some solved cases for reference:
`COc1cccc(Nc2cc(Nc3cc(OC)ccc3OC)ncn2)c1` yielded inhibition of 4.8%

# inhibition of `COc1ccc(Nc2cc(NC(=O)c3ccccc3)ncn2)cc1` = 1.8%

In the following, a different compound is considered.
The reported inhibition of the compound `CCOC(=O)c1ccc(Nc2cc(NC(=O)CCCC(=O)O)ncn2)cc1` was -0.6%

====

compounds and their reported inhibition
# measurement_target: Aurora kinase A (Homo sapiens)
# protocol_notes: Inhibition of human N-terminal GST-tagged AURA (1 to 403 residues) expressed in baculovirus expression system at 1 uM using FAM-labeled peptide as substrate after 10 mins by mobility shift assay relative to control
Numeric only. Scale: %

Lab note: measured inhibition of `COc1ccc(Nc2cc(NC(=O)c3ccccc3)ncn2)cc1` was 2.6

inhibition recorded for this compound, `O=C(O)CCCC(=O)Nc1cc(Nc2cccc(Cl)c2)ncn1` , is 8.7

inhibition for `COc1cccc(Nc2cc(Nc3cc(OC)ccc3OC)ncn2)c1` is 52.3

Short answer for `O=C(O)CCCC(=O)Nc1cc(N2CCOCC2)ncn1` : inhibition was 49

---
// `COc1cccc(Nc2cc(NC(=O)CCCC(=O)O)ncn2)c1` : inhibition value = 19.8

Form field inhibition, entry `CCOC(=O)c1ccc(Nc2cc(NC(=O)CCCC(=O)O)ncn2)cc1` : 17.3

====

Entries and their inhibition
# measurement_target: Mitogen-activated protein kinase kinase kinase kinase 4 (Homo sapiens) (UniProt O95819)
# Sequence (O95819 2-1239 limits assumed): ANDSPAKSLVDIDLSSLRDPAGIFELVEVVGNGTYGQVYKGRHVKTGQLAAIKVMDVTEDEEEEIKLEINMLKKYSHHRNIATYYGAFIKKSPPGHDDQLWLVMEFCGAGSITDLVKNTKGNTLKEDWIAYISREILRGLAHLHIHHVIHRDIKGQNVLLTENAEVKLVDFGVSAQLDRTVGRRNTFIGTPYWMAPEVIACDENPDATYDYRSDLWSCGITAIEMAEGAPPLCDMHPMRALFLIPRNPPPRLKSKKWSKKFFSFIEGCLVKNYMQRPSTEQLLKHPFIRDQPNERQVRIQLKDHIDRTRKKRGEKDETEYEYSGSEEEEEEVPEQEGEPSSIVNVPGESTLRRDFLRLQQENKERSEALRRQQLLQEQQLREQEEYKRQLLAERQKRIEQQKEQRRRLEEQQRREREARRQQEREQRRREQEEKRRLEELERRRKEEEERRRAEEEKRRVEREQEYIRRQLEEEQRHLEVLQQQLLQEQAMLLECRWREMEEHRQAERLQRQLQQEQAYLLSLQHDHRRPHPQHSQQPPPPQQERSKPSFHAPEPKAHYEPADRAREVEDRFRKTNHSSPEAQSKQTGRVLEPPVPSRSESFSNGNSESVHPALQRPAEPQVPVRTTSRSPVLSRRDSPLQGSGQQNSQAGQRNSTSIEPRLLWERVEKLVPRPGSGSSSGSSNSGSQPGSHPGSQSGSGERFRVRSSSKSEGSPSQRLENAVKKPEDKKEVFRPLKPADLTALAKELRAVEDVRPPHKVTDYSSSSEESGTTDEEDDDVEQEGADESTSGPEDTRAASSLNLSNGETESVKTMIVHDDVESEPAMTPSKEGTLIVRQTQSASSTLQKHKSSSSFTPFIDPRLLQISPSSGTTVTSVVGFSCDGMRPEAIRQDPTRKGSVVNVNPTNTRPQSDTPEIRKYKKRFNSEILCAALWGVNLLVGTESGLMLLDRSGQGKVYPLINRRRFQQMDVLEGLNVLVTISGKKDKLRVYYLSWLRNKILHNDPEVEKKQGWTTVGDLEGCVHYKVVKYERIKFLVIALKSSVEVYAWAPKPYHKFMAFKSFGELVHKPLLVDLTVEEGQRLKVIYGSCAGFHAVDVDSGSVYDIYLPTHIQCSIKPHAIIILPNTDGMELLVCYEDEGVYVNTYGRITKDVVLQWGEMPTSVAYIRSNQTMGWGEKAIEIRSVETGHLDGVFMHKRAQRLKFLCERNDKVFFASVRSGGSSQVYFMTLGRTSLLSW
# protocol_notes: Inhibition of human N-terminal GST-tagged full length MAP4K4 catalytic domain (1 to 328 residues) expressed in baculovirus expression system at 1 uM using FAM-labeled peptide as substrate after 10 mins by mobility shift assay relative to control

Recorded results for 5 molecules are shown here.
The recorded inhibition with Mitogen-activated protein kinase kinase kinase kinase 4 (Homo sapiens) (UniProt O95819) for `CCOC(=O)c1ccc(Nc2cc(NC(=O)CCCC(=O)O)ncn2)cc1` was 56.3%

Param item: `O=C(O)CCCC(=O)Nc1cc(N2CCOCC2)ncn1` ; param system: Mitogen-activated protein kinase kinase kinase kinase 4 (Homo sapiens) (UniProt O95819); output inhibition: 21.6%

Result for `COc1ccc(Nc2cc(NC(=O)c3ccccc3)ncn2)cc1` , tested on Mitogen-activated protein kinase kinase kinase kinase 4 (Homo sapiens) (UniProt O95819), inhibition: 44.8%

The reported inhibition value, Mitogen-activated protein kinase kinase kinase kinase 4 (Homo sapiens) (UniProt O95819), for `O=C(O)CCCC(=O)Nc1cc(Nc2cccc(Cl)c2)ncn1` reads 78.2%

// assay Mitogen-activated protein kinase kinase kinase kinase 4 (Homo sapiens) (UniProt O95819), entry `COc1cccc(Nc2cc(NC(=O)CCCC(=O)O)ncn2)c1` , inhibition value = 13.5%

Now take the following molecule into account.
# value of inhibition, Mitogen-activated protein kinase kinase kinase kinase 4 (Homo sapiens) (UniProt O95819), item `COc1cccc(Nc2cc(Nc3cc(OC)ccc3OC)ncn2)c1` = 53.5%

====

# measurement_target: Vascular endothelial growth factor receptor 3 (Homo sapiens)
# protocol_notes: Inhibition of recombinant human GST-tagged FLT4 cytoplasmic domain (800 to 1297 residues) expressed in baculovirus expression system at 1 uM using FAM-labeled peptide as substrate after 10 mins by mobility shift assay relative to control
Returns yes (1) if the recorded inhibition is greater than or equal to 30%, and no (0) otherwise.

Ask | Check this compound for inhibition at or above 30%: `O=C(O)CCCC(=O)Nc1cc(N2CCOCC2)ncn1`
Reply | no (0)

Ask | hey, is inhibition for this one >= 30%? `CCOC(=O)c1ccc(Nc2cc(NC(=O)CCCC(=O)O)ncn2)cc1`
Reply | no (0)

Ask | Identify whether the reported inhibition of the following compound is 30% or greater: `COc1ccc(Nc2cc(NC(=O)c3ccccc3)ncn2)cc1`
Reply | no (0)

Now look at this entry.
Ask | Does the compound `COc1cccc(Nc2cc(Nc3cc(OC)ccc3OC)ncn2)c1` have recorded inhibition that is 30% or more?
Reply | yes (1)

====

# Lookup of reported inhibition keyed by entry
# measurement_target: Fibroblast growth factor receptor 1 (Homo sapiens)
# protocol_notes: Inhibition of N-terminal GST-tagged human FGFR1 cytoplasmic domain (398 to 822 residues) expressed in baculovirus expression system at 1 uM using FAM-labeled peptide as substrate after 10 mins by mobility shift assay relative to control
Respond numerically; units are % and should not be typed.

The compound listed as `O=C(O)CCCC(=O)Nc1cc(Nc2cccc(Cl)c2)ncn1` has a reported inhibition of 13.5

inhibition for `O=C(O)CCCC(=O)Nc1cc(N2CCOCC2)ncn1` is 5.6

For reference, reported inhibition for `COc1cccc(Nc2cc(NC(=O)CCCC(=O)O)ncn2)c1` stands at 24

Form: compound = `COc1ccc(Nc2cc(NC(=O)c3ccccc3)ncn2)cc1` ; inhibition = -1.6

GET /value?item= `CCOC(=O)c1ccc(Nc2cc(NC(=O)CCCC(=O)O)ncn2)cc1` &field=inhibition returns 5.6

# inhibition of `COc1cccc(Nc2cc(Nc3cc(OC)ccc3OC)ncn2)c1` = 4.8

====

Property: inhibition; scope: individual compounds
# measurement_target: UniProtKB P23458
# Sequence (P23458 whole entry, the tested form may be a part): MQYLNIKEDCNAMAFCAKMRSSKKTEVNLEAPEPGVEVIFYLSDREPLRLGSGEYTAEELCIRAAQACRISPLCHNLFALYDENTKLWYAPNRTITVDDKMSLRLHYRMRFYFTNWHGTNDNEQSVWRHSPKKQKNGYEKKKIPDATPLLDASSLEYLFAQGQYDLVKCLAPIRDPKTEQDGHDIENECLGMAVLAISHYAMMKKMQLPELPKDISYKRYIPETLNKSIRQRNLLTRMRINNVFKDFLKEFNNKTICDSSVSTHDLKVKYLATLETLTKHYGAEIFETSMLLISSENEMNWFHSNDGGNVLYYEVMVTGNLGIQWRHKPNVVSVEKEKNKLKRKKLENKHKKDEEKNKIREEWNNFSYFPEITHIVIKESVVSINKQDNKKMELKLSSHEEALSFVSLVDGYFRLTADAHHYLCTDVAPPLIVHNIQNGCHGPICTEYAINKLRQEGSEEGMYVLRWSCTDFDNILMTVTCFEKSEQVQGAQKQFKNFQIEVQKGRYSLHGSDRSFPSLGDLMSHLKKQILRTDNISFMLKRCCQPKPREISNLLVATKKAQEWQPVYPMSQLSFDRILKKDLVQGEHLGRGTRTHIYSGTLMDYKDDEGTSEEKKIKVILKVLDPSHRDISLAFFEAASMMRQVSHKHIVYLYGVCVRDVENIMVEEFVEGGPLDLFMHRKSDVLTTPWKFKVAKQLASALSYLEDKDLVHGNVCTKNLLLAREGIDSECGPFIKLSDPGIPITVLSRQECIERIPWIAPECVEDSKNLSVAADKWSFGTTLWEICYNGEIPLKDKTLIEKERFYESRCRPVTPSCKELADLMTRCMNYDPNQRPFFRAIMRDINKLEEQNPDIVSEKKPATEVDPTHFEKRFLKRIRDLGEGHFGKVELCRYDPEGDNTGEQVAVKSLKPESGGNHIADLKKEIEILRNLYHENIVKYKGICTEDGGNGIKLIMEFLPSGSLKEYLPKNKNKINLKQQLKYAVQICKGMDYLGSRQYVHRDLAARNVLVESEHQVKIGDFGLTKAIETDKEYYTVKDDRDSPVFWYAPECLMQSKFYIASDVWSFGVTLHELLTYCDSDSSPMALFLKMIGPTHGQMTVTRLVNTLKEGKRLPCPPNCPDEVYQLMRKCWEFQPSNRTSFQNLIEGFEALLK
# protocol_notes: Inhibition of human N-terminal GST-tagged JAK1 catalytic domain (850 to 1154 residues) expressed in baculovirus expression system at 1 uM using FAM-labeled peptide as substrate after 10 mins by mobility shift assay relative to control
Entry rule: numbers only, all in %.

Examples from the recorded data:
inhibition measured on `COc1cccc(Nc2cc(Nc3cc(OC)ccc3OC)ncn2)c1` = -1.4

Lookup result for `COc1ccc(Nc2cc(NC(=O)c3ccccc3)ncn2)cc1` ; measured inhibition: -0.8

GET /value?item= `O=C(O)CCCC(=O)Nc1cc(Nc2cccc(Cl)c2)ncn1` &field=inhibition returns -1

Briefly, inhibition measured for `CCOC(=O)c1ccc(Nc2cc(NC(=O)CCCC(=O)O)ncn2)cc1` : -3.1

Record `COc1cccc(Nc2cc(NC(=O)CCCC(=O)O)ncn2)c1` . Reported inhibition: -0.7

Next:
Record summary for `O=C(O)CCCC(=O)Nc1cc(N2CCOCC2)ncn1` : reported inhibition = -2.4

====

# Test system: BEAS-2B
# protocol_notes: Cytotoxicity against human BEAS2B cells after 72 hrs by MTT assay
# Type: cell-based
experimental_readout: pIC50
Interpret pIC50 as the negative base-10 log of the concentration measured in mol/L.

Measured pIC50, `COc1cc2ncnc(Nc3cccc(Cl)c3F)c2cc1OC(=O)N1CCN(C)C[C@H]1C` : 4.73

According to the records, this compound `COc1ccc(OC)c(Nc2cc(Nc3ccc(N4CCN(C)CC4)cc3)ncn2)c1` displays pIC50 of 4.74

// sample `O=C(O)CCCC(=O)Nc1cc(Nc2cccc(Cl)c2)ncn1` , its pIC50 was 4.74

Continuing:
The recorded pIC50 for `CCOc1ccc(Nc2cc(NC(=O)c3ccccc3)ncn2)cc1` is 4.76

Please fill in: pIC50 reported for `O=C(O)CCCC(=O)Nc1cc(Nc2ccccc2)ncn1` = 4.75
